Recorded values, source patent US20060241051A1.

pIC50 reference
# test_system: T1, human OT7T175 (metastin receptor) (human, UniProt Q969F8 1-398)
# T1 construct: expressed on CHO cells (hOT7T175-expressed CHO cells; hOT7T175/CHO); also called hOT7T175; h0T7T175
# T1 sequence (Q969F8 whole entry L364H): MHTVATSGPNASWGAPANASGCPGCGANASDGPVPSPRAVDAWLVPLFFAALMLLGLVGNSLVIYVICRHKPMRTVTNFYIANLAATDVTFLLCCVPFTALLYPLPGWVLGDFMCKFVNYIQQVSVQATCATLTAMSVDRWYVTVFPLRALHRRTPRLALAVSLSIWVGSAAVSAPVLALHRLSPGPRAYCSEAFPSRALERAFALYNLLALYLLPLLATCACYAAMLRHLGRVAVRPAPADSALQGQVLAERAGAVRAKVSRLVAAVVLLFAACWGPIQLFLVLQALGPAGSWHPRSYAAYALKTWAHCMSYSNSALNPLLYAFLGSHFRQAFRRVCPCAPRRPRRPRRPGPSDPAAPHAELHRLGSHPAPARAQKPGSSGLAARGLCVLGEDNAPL
# protocol_description: FMAT competition with Cy-5-labeled metastin (40-54), hOT7T175-expressed CHO cells
Square brackets hold non-standard residues; d marks the D form. Ends that are not written are not given here. 2Nal = N[C@@H](Cc1ccc2ccccc2c1)C(=O)O; Arg(Me) = CNC(=N)NCCC[C@H](N)C(=O)O; azaGly = NNC(=O)O
On this scale, pIC50 is minus log10 of a concentration expressed in M (mol/L).

binder	pIC50
[dY]NWNSFGL[Arg(Me)]F-NH2 (also: Phe6-Gly7 bond reduced (CH2NH)) [Compound No. 308: [6Ψ7, CH2NH,D-Tyr1,Arg(Me)9]MS10]	6.46
[dY]N[2Nal]NSF[azaGly]L[Arg(Me)]F-NH2 (N-terminus assumed; SMILES CNC(=N)NCCC[C@H](NC(=O)[C@H](CC(C)C)NC(=O)NNC(=O)[C@H](Cc1ccccc1)NC(=O)[C@H](CO)NC(=O)[C@H](CC(N)=O)NC(=O)[C@H](Cc1ccc2ccccc2c1)NC(=O)[C@H](CC(N)=O)NC(=O)[C@H](N)Cc1ccc(O)cc1)C(=O)N[C@@H](Cc1ccccc1)C(N)=O) [Compound No. 246: [D-Tyr1,Nal(2) 3,AzaGly7,Arg(Me)9]MS10]	8.15

Now examine the next entry.
Query: Look up pIC50: [dY]NANSF[azaGly]L[Arg(Me)]F-NH2 (N-terminus assumed; SMILES CNC(=N)NCCC[C@H](NC(=O)[C@H](CC(C)C)NC(=O)NNC(=O)[C@H](Cc1ccccc1)NC(=O)[C@H](CO)NC(=O)[C@H](CC(N)=O)NC(=O)[C@H](C)NC(=O)[C@H](CC(N)=O)NC(=O)[C@H](N)Cc1ccc(O)cc1)C(=O)N[C@@H](Cc1ccccc1)C(N)=O) [Compound No. 235: [D-Tyr1,Ala3,AzaGly7,Arg(Me)9]MS10]
Result: 7.00
